Ref: patent US12655116B2

Provide the reported pest or weed control at 20 g/ha of each item.
- System: MATIN
- TEST PROTOCOL: Pre-emergence herbicidal action against MATIN
- Type: in vivo, Matricaria inodora
- RUN PARAMETERS: Tripleurospermum inodorum, 504 h, dosage 20 g/ha
Give your result in % as a bare value.

Prompt line: # query: pest or weed control at 20 g/ha of entry CCNC(=O)c1c(C(F)(F)F)ccc(C(=O)Nc2nnnn2CC)c1Br [Example 2-208]
Response line: 100

Prompt line: # lookup: pest or weed control at 20 g/ha of CCn1nnnc1NC(=O)c1ccc(C(F)(F)F)c(C(=O)NC2CC2)c1OC [Example 2-58]
Response line: 100

Prompt line: Query (molecule): CCNC(=O)c1c(C(F)(F)F)ccc(C(=O)Nc2nnnn2C)c1SC [Example 1-82] ; field requested: pest or weed control at 20 g/ha
Response line: 100

Prompt line: # pest or weed control at 20 g/ha lookup, item Cn1nnnc1NC(=O)c1ccc(Br)c(C(=O)NCC(F)(F)F)c1Cl [Example 1-181]
Response line: 90

Prompt line: GET /values?readout=pest or weed control at 20 g/ha&item= CCNC(=O)c1c(Br)ccc(C(=O)Nc2nnnn2C)c1Cl [Example 1-178]
Response line: 90

Prompt line: What does the data say about its pest or weed control at 20 g/ha? Entry: CCNC(=O)c1c(C(F)(F)F)ccc(C(=O)Nc2nnnn2CC)c1C1CC1 [Example 2-287]
Response line: 100

Prompt line: Can you share its pest or weed control at 20 g/ha? I mean this molecule: CCn1nnnc1NC(=O)c1ccc(Br)c(C(=O)NC2CC2)c1Cl [Example 2-179]
Response line: 100

Prompt line: Any idea what its pest or weed control at 20 g/ha is? The molecule is Cn1nnnc1NC(=O)c1ccc(C(F)F)c(C(=O)Nc2ccccc2)c1Cl [Example 1-161]
Response line: 90

Prompt line: Quick one: pest or weed control at 20 g/ha of CCNC(=O)c1c(C(F)F)ccc(C(=O)Nc2nnnn2C)c1C1CC1 [Example 1-305] ?
Response line: 100

Prompt line: Which pest or weed control at 20 g/ha value is on record for CCn1nnnc1NC(=O)c1ccc(C(F)(F)F)c(C(=O)NC)c1Cl [Example 2-129] ?
Response line: 100

Prompt line: Form field: reported pest or weed control at 20 g/ha of CCn1nnnc1NC(=O)c1ccc(Br)c(C(=O)NC2CC2)c1Br [Example 2-343]
Response line: 80

----------
Can you tell me pest or weed control at 20 g/ha for the items I'm about to list?
- Tested on: DIGSA
- TEST PROTOCOL: Pre-emergence herbicidal action against DIGSA
- Type: in vivo, Digitaria sanguinalis
- RUN PARAMETERS: Digitaria sanguinalis, 504 h, dosage 20 g/ha
// return numeric value only (unit: %, not printed)

Prompt line: Quick one: pest or weed control at 20 g/ha for CCn1nnnc1NC(=O)c1ccc(C(F)F)c(C(=O)NC2CC2)c1Br [Example 2-227] ?
Response line: 90

Prompt line: I am curious: what pest or weed control at 20 g/ha value has been reported for CCNC(=O)c1c(C(F)(F)F)ccc(C(=O)Nc2nnnn2C)c1Cl [Example 1-130] ?
Response line: 100

Prompt line: Given CCn1nnnc1NC(=O)c1ccc(C(F)F)c(C(=O)NC2CC2)c1Cl [Example 2-149] , state its recorded pest or weed control at 20 g/ha.
Response line: 90

Prompt line: Fill blank: measured pest or weed control at 20 g/ha of the compound CCNC(=O)c1c(C(F)(F)F)ccc(C(=O)Nc2nnnn2CC)c1Br [Example 2-208] is ____.
Response line: 90

Prompt line: I have this compound here, CNC(=O)c1c(C(F)(F)F)ccc(C(=O)Nc2nnnn2C)c1C [Example 1-25] , and I need its recorded pest or weed control at 20 g/ha.
Response line: 90

Prompt line: I would be grateful if you could share the reported pest or weed control at 20 g/ha for CCNC(=O)c1c(C(F)(F)F)ccc(C(=O)Nc2nnnn2C)c1C [Example 1-26] .
Response line: 100

Prompt line: Request the reported pest or weed control at 20 g/ha associated with CCCNC(=O)c1c(C(F)(F)F)ccc(C(=O)Nc2nnnn2C)c1Cl [Example 1-136]
Response line: 100

Prompt line: Look at this compound and give its reported pest or weed control at 20 g/ha. CCc1c(C(=O)Nc2nnnn2C)ccc(C(F)(F)F)c1C(=O)NC1CC1 [Example 1-273]
Response line: 100

Prompt line: Using the record for CCn1nnnc1NC(=O)c1ccc(C(F)(F)F)c(C(=O)NC(C)=O)c1Cl [Example 2-337] , report its pest or weed control at 20 g/ha.
Response line: 90
